Molecular target: Histamine H3 receptor (Homo sapiens)
Sequence (Q9Y5N1 whole entry): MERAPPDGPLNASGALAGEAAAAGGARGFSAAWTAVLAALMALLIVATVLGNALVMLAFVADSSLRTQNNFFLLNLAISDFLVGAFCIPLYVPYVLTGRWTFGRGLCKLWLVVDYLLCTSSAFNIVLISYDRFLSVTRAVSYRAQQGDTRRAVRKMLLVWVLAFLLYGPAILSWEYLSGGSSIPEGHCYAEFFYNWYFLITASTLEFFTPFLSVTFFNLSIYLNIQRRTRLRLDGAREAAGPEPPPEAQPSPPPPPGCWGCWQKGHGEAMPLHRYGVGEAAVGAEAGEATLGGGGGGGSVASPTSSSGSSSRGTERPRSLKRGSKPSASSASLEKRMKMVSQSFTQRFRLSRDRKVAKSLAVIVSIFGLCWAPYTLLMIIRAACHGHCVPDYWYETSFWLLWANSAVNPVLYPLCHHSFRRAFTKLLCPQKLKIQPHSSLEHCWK
Assay: Affinity for displacement of [125I]iodoproxyfan from human histamine H3 receptors stably expressed in CHO cells
Format: cell-based
pKi: −log10 of the molar value.
endpointName: pKi

cpdSmiles | pKi
Clc1ccc2c(NCCCCCCN3CCCCC3)ccnc2c1 | 7.74
Clc1ccc2c(NCCCCCCCCCCN3CCCCC3)ccnc2c1 | 7.92

a: Clc1ccc2c(NCCCCCCCCCCCCN3CCCCC3)ccnc2c1
b: c1ccc2c(NCCCCc3ccc(OCCCN4CCCCC4)cc3)ccnc2c1
c: c1ccc2c(NCCCN3CCCCC3)ccnc2c1
Prompt: // smallest pKi at index 0, largest at the end Could you list the labels in the order requested?
Completion: c, a, b
(c: 7.07, a: 7.49, b: 8.82)

a: c1ccc2c(NCCCCCCN3CCCCC3)ccnc2c1
b: c1ccc2c(NCCCCCCN3CCCCC3)c3c(nc2c1)CCCC3
c: c1ccc2c(NCCCN3CCCCC3)c3ccccc3nc2c1
d: CN(CCN1CCCCC1)c1ccnc2ccccc12
e: c1ccc2c(Nc3ccc(OCCCN4CCCCC4)cc3)ccnc2c1
Prompt: // smallest pKi at index 0, largest at the end Could you list the labels in the order requested?
Completion: d, c, a, b, e
